Source: patent US10239925B2

- TARGET OR TEST SYSTEM: HLA-A*02:01 (Homo sapiens, UniProt P04439, D140Y/D185E/D98H/E176V/E277Q/G131W/G231S/I119V/I121R/I166T/I218V/L300P/L318F/N151K/N90K/P208A/P217A/Q86G/Q94H/R138H/R169H/T345S)
- ASSAY PROTOCOL: MHC binding assay (UV-ligand exchange, anti-β2m ELISA, peptide exchange yield)
- EXPERIMENTAL CONDITIONS: binding to HLA-A*02:01
MEASURED ENDPOINT: Peptide exchange (MHC class I binding score, peptide exchange yield)

{"SUBSTANCE": "178 (ALTEIAFVV; listed as Homo sapiens) [compound 178]", "REPORTED MEASUREMENT": "“++++” (>75% = ++++)"}
{"SUBSTANCE": "277 (LLPPLESLATV; listed as Homo sapiens) [compound 277]", "REPORTED MEASUREMENT": "“++” (>20% = ++)"}
{"SUBSTANCE": "183 (FGLDLVTEL; listed as Homo sapiens) [compound 183]", "REPORTED MEASUREMENT": "“+++” (>50 = +++)"}
{"SUBSTANCE": "443 (GLWEIENNPTV; listed as Homo sapiens) [compound 443]", "REPORTED MEASUREMENT": "“+++” (>50 = +++)"}
{"SUBSTANCE": "34 (ILVEADSLWVV; listed as Homo sapiens) [compound 34]", "REPORTED MEASUREMENT": "“+++” (>50 = +++)"}

Name the recorded Peptide exchange (MHC class I binding score, peptide exchange yield) for 152 (ILFEDIFDV; listed as Homo sapiens) [compound 152] .
“+++” (>50 = +++)

Record: 571 (LLLTTIPQI; listed as Homo sapiens) [compound 571]
“+++” (>50 = +++)

How about this substance: 340 (ALLSMTFPL; listed as Homo sapiens) [compound 340]
“++++” (>75% = ++++)

Same question for 154 (ALDDGTPAL; listed as Homo sapiens) [compound 154] please.
“++” (>20% = ++)
